- protocol: soluble on expression in E. coli; label from the status in PepcDB or PDB records
metric.name: soluble on expression in E. coli

INSERT INTO results (residue_string, metric_name, reading) VALUES
  ('MADTSCKLKPLCFRFVSTLKSPIAVITVTYSPGKYLASFLDSLPGATSRDTHVVMADNGSVDGVPEQAAASRSNVEFLSTGGNLGYGTAINIAARSLRARREAGEIDGEFFLVSNPDVVFDEDSIDQLLECAKRHPEAGAVGPLIREADGSAYPSARAVPTLANGIGHALLGAVWKSNPWSAAYRDDEDMDTERTAGWLSGSCLLLRWDAFDRVGGFDERYFMYMEDVDLGDRLVRAGFTNVFCPSAQIIHAKGHVAGKNPENMLPAHHESAYRFQADRLAKPWQAPIRLALRIGLKLRAGVAVGVSKMRTKASLEHHHHHH', 'soluble on expression in E. coli', 'not soluble'),
  ('GPGSMYRSDTDERKRRQSVSWRKRASFIELDCGEDSFFVANNYKVIGVADGVGGWRAEGVDPSLFANALMENAKLFAETHRGERDPEKILDAAYTKVVKDGIVKVGSSTACVATLRKDDDGSHKLDVANLGDSGVMVVRNRSMYFRAHEKVHGFNAPFQLAVLPQPMVGRAFSDRVQDCVRESVPVQEGDVIVMGTDGLFDNRFNSQLAADAGWIGKVEESPIAKIPLVGFFLSGILDEKIDYVDPYRVAQRIITDAYKTSVNPDTNSPWASMLRQFGQTDAKGGKPDDITVLLSRVSTREELSNSTSW', 'soluble on expression in E. coli', 'not soluble');

###

- protocol: soluble on expression in E. coli; label from the status in PepcDB or PDB records
metric.name: soluble on expression in E. coli

INSERT INTO measurements (residue_string, metric_name, reading) VALUES
  ('MAYKSLLTVATSPERVEPAITVASRLALSSDAHLDVLALGIDGTQVAYYNMGGTAVVLQMALERAEQEAQAVEKAAAAALSAQPAMLRASVESAVAQMGGLAGLVALRSRFADLVVLSRPYGKGRGAETEAVVEAALFEGQAPVLVVPDDPALSERFGHRIVIAWDQSREALTAVRKAMPFLLRADNVDIVIVDPAAHGAERSDPGGALCQMLVRHGVRAEVSVLAKTMPRISDVIARHVRDQDADLLVMGAYGHSRFREAILGGATRDMLELAEVPVLMAH', 'soluble on expression in E. coli', 'not soluble'),
  ('ADPWQECMDYAVTLARQAGEVVCEAIKNEMNVMLKSSPVDLVTATDQKVEKMLISSIKEKYPSHSFIGEESVAAGEKSILTDNPTWIIDPIDGTTNFVHRFPFVAVSIGFAVNKKIEFGVVYSCVEGKMYTARKGKGAFCNGQKLQVSQQEDITKSLLVTELGSSRTPETVRMVLSNMEKLFCIPVHGIRSVGTAAVNMCLVATGGADAYYEMGIHCWDVAGAGIIVTEAGGVLMDVTGGPFDLMSRRVIAANNRILAERIAKEIQVIPLQRDDED', 'soluble on expression in E. coli', 'soluble'),
  ('MKQQAIDEQLRNAIEYTPEMFTQVPMLYINIEINNYPVKAFVDTGAQTTIMSTRLAKKTGLSRMIDKRFIGEARGVGTGKIIGRIHQAQVKIETQYIPCSFTVLDTDIDVLIGLDMLKRHLACVDLKENVLRIAEVETSFLSEAEIPK', 'soluble on expression in E. coli', 'soluble'),
  ('MSLDREKANKNLLKILEAINGNSLVLFKSFEDLDSFYKYLKREITKTNIKNKNIHVYEQGMDGKEAKELKERFEKIGGILLATGRFAEGVDIPGEALVGVVIDSLPFPVPTPLILREQKILEERFKIRGVRDAHWRAFLMTSFDRMARTLVQMIGRLIRTENDYGVVVIQDKRFADWVGRVMREKGEGHHHHHH', 'soluble on expression in E. coli', 'soluble'),
  ('MSLDKKAVFADVAEKDASFINENYYISPSLDTLSSYSLLQLRKVPHLVVGHKSYGKIEFLEPVDLAGIPLTSLGGVIITFEPKTCIIYANLPNRPKRGEGINVRARITCFNCYPVDKSTRKPIKDPNHQLVKRHIERLKKNPNSKFESYDADSGTYVFIVNHAAEQTEGHHHHHH', 'soluble on expression in E. coli', 'soluble');

Query MGVDPSVKVEYKAPTVTYDQVGFMSKSTLMTHEQLISVRSAKVRQSVKITVKEQIPKSHDDKIKVSIVSPEIKSSSSSKNSSPPDARLNKDHNLEWCVILAPGQHRLLPVRYTIEHPASESLSYKFN yields soluble on expression in E. coli of not soluble

Field soluble on expression in E. coli (entry MVNKKRQVRFEFFQVNGKAQEGEKIVKGLFDLYPLADRINSISNYTDRDVILFGEKVRMDRFFEVSSSPELYAMHFTRLRNDKPAYVELNNEVLKEIPLNPGEYIAEDISCLYDRELSVLMVQRNIHSLSPSGIEDYFTEMSDDLVEIELLPVVNKEIISKALANEKFRKLELRAGSMNTTSDRSGLRKVLGPFMELFEKFEGTNFVIEISSGRSKKDLSEDQMKEVITAIEQDKSLFSSAIVSAKKSKEVPVEKYDLINGKLYVYRSFDLPDGAFLKSDSVIDNIKNYYFHPNEGGYRKQIIDAVK ) reads not soluble

Reported soluble on expression in E. coli for MVNQEKTLDVGFTHADFAALLDRYDYHFNPGDIVAGTVFSIEPKGALIDIGAKTAAYIPIQEMSINRIESPEEVLQPNETREFFILADENEEGQLTLSIRRIEYMRAWERVRQLQAEDATVRSQVFATNRGGALVRIEGLRGFIPGSHISTRVNKEELVGEELPLKFLEVDEERNRLVLSHRRALVERKMNKLEVGEVVVGTVRGIKPYGAFIDIGGVSGLLHISEISHDHIDTPHSVFNVNDQVKVMIIDLDAERGRISLSTKQLEPEPGDMVKNPQLVYEKAEEMAERYRQQLLQQQQQAAGETPEEGMEDIPEATEDDSPAPILQEALEHHHHHH was not soluble

Record summary for MAKRVIIAGGNIAGTIVANRLVQKLEHEVNKGDVEIVALNKSDEHIYLPGQLLVGFGLETPGELVRKESELLDPRIKFLHGQKGTISKIDVANHSVQTADGVSHSYDYLVITTGVDYTWDEIPGYRSAAHTVYEYDDAIKMREALEKFDGGTIVVNTAKLPHRCPVAPLEVTLILDDYLRKRGIRDKTKIIYTYPVQGVFGRPITNKFMLRLFEQRGIEVHSPFTVTSVDPNNKVIESQEGEKLKFDMLIGIPPNMGAKVIEDSGIGDRRRWVPTDKFTLRMKDHSNVYVMGDATDLPVSKAGSTADFESYTVAHNIANDIKGNLGVKHYGGDVLCYIATGTDQATYIRFSYTMNESPPPPSYVHWWGKIMYNKMYWTVTAKAVVLEHHHHHH : reported soluble on expression in E. coli = not soluble

Value of soluble on expression in E. coli reported for the sequence GPLHMKAVVPGPAEHPLQYNYTFWYSRRTPGRPTSSQSYEQNIKQIGTFASVEQFWRFYSHMVRPGDLTGHSDFHLFKEGIKPMWEDDANKNGGKWIIRLRKGLASRCWENLILAMLGEQFMVGEEICGAVVSVRFQEDIISIWNKTASDQATTARIRDTLRRVLNLPPNTIMEYKTHTDSIKMPGRLGPQRLLF is soluble

Per the records, this sequence ( MGSDKIHHHHHHMSRFAACFEDLPDPRGRNARHPLTSILFIAVAAIVCGAESCTDMADFGVAKKKWLKTIVPLPYGIPSHDTFSTVFRHLDPDAFDAAFRRLTASFAQGLEGVVAIDGKAVRGAYRRAAKATPLHFVNVWAAGPGLVIGQKLAPGRNEVQGALDALALLALEGSIVTADALHCRPDTARAILAAGGDYALALKANQPGLLAQALARIEDADHVESIQIAAETAHDRTETRRASVVAVDDINFPGLQAIGCVETTSRHTNGHLTSHVRYFLLSTTMSPSALIEVVRTHWQIENKLHWVLDVHFREDAARNRKDNGPQNIAFLRKIALNLLRSHPDKASIRRKIKKAGWDDQFLTSLIAHMR ) has soluble on expression in E. coli equal to not soluble

// soluble on expression in E. coli lookup, sequence = MFGGDTLYELRCSLQLAETEREGGFSPHISPFTAVNDLGHLLGRAGFNTLTVDTDEIQVNYPGMFELMEDLKGMGESNCSWNRKALLHRDTMLAAAAVYREMYRNEDGSIPATFQIYHMIGWKYHDSQARPAERGSATVSFGELAKLNDVMSHEKK , result: soluble
